# assay.protocol: soluble on expression in E. coli; label from the status in PepcDB or PDB records
measurement.name: soluble on expression in E. coli

[[record]]
construct_sequence = "MDSENAVKTTYGEFNGKKPFAVMLLGTDTGALDRTEKRGNTDTIIVVVVNPKKKNYTMISIPRDTMADMVGDDSNDVQKINAAYSIGGAKMAMKTVSNLLNIPVKYYALVNMGGLMKLVDYVGGIYVTPPLTFTYSGFPFKKRVRQHLNGQAALAYSRMRYDDPQGDYGRQKRQREVITKLVQKLATADSLTNFSKIANNLSSNVKTNLSFQALKSILANYSDCTSSSDSDYLHGYSTYVNDAAYQIAPTSELQRISNKIRKLLGLKTATVSNRETELNTLNETAGFKFGSGETQNYTLEHHHHHH"
measurement_name = "soluble on expression in E. coli"
result = "soluble"

[[record]]
construct_sequence = "MAKGDVITLNFETFVDSDTQVKVTRLTPTDVICHRNYFYQKCFTQDGKKLLFAGDFDGNRNYYLLNLETQQAVQLTEGKGDNTFGGFISTDERAFFYVKNELNLMKVDLETLEEQVIYTVDEEWKGYGTWVANSDCTKLVGIEILKRDWQPLTSWEKFAEFYHTNPTCRLIKVDIETGELEVIHQDTAWLGHPIYRPFDDSTVGFCHEGPHDLVDARMWLVNEDGSNVRKIKEHAEGESCTHEFWIPDGSAMAYVSYFKGQTDRVIYKANPETLENEEVMVMPPCSHLMSNFDGSLMVGDGCDAPVDVADADSYNIENDPFLYVLNTKAKSAQKLCKHSTSWDVLDGDRQITHPHPSFTPNDDGVLFTSDFEGVPAIYIADVPESYKHLEHHHHHH"
measurement_name = "soluble on expression in E. coli"
result = "soluble"


###

# assay.protocol: soluble on expression in E. coli; label from the status in PepcDB or PDB records
measurement.name: soluble on expression in E. coli

[[record]]
construct_sequence = "MIAGPLGRASELHRYEGNQTVVFCAGGVGLPPVYPIMREHLRLGNHVTLISGFRAKEFLFWTGDDERVGKLKKEFGDQLSLIYTTNDGSYGVKGFVTGPLEEMMKANQEGKGRSIAEVIAIGPPLMMRAVSDLTKPYGVKTVASLEHHHHHH"
result = "not soluble"

[[record]]
construct_sequence = "AYDIISDIHGCYDEMTALIQKLGYTIKNGVPVHEEGRVLVFAGDLTDRGPKSIEVIRFVAGAYEKGAVRYVPGNHCNKLYRYLKGNPVKVMHGLETTAAELEELSKDEKKSVSEQFMKLYETAPLYDILHNGELVVAHAGIRADDIGKYTRRVKDFVLYGDVTGETYPDGRPIRRDWAAAYNGKAWVVYGHTPVKEPRKVNRTINIDTGCVFGNQLTGFRFPEIETVSVPSSLPYDESRFRP"
result = "not soluble"


###

# assay.protocol: soluble on expression in E. coli; label from the status in PepcDB or PDB records
measurement.name: soluble on expression in E. coli

[[record]]
construct_sequence = "HDTRKIIAKQLGPHTYLVSGRMEIDDVNERFGLSLPESDDYLTVAGFILNSHQNIPQANEVVEIAPYTFTILRSSSTKIELVKMSIDD"
measurement_name = "soluble on expression in E. coli"
result = "not soluble"

[[record]]
construct_sequence = "MSLSKLPLLPTTVIGSYPRPKWLRESIRLHKAGKMSNEDLQEAFNDAVIAVFQDHYKAGVDVPTDGEVRRDEMVEFFAERIKGFKFYGPVRVWGTAYYRKPSVVSKIEYREPMLVDEFTFAKSVSYTDNLKITITGPYTIAEWSYNEYYRNKKDLVFDLAKAINQEIKNLVEAGAKIIQIDEPALHTRKEDVSWGVEAVNEAVKGVNAKLVMHICYGDYSFVAPYFNEIKVDQINFALKIYNYKPLELLKKYGFDKELGAGVVDVHNRKVETSEEVANDIRKILEYFPPEKVWINPDCGLKLLSRKIAYQKLVSMVEGTKVVREELKRKGYSVDEGHHHHHH"
measurement_name = "soluble on expression in E. coli"
result = "not soluble"

[[record]]
construct_sequence = "MSLQVEFRECDPGNLWIWFEFAEPPVPAELEYLKEVLESWYVLGKLGGFNAERLVAQEAEVDLSYLEYPSDSAPLTSLMHNMGSLEEKGNWARCWFDLGTADALALDVLINALRTLSLEYINLSRVIIGGQNEDWPTPDPEETDVYDDLNGYLRDHWGEEGEGHHHHHH"
measurement_name = "soluble on expression in E. coli"
result = "soluble"

[[record]]
construct_sequence = "MNGIHDVGGMDGFGKVMYVKEEEDIYFTHDWERLALGLVAGCMAQGLGMKAFDEFRIGIELMRPVDYLTSSYYGHWIATVAYNLVDTGVLDEKELDERTEVFSKKPDTKIPRREDPALVKLVEKALNDGLSPLREISASPRFKVGERIKTKNIHPTGHTRFPRYARDKYGVIDEVYGAHVFPDDAAHRKGENPQYLYRVRFEAEELWGYKQKDSVYIDLWESYMEPVSH"
measurement_name = "soluble on expression in E. coli"
result = "soluble"


###

# assay.protocol: soluble on expression in E. coli; label from the status in PepcDB or PDB records
measurement.name: soluble on expression in E. coli

[[record]]
construct_sequence = "AHHHHHHGSKVEKYAIIFGKNPELGLYELKAFSKRFKLGVRILEIRFYGPNKSFAIIQAKEEIEKKFKWLGGALKLVRIVGEGLDTIENLEYSKLFTVSLYGKEDWKAWRKLGSQVKAVFKRKDSSKFFKPANVYSMPSELILKGFPEVKDVVFLFVDKDRVLVGETIRITNPFELKKLDVERPIVRPTLSIPPRLARIMINLSEVRKGNVLDPFCGTGTILVELLLQGLIAYGSDISQERINDARKNIEWIRKEFRIKQNASLRVCDVRRLKKCFRTRFDAIITEPYMGRPLKTKPTREEAIKIAKQLDRLYYQAFESFSDVLKRNAKVVFVFPAFNLAEGGVYRRNRPWLEELGFKVEYSILDIDEKHRIGRDIYVIRY"
result = "soluble"

[[record]]
construct_sequence = "HHHHHHGILMMANRMILNETAWFGRGAVGALTDEVKRRGYQKALIVTDKTLVQCGVVAKVTDKMDAAGLAWAIYDGVVPNPTITVVKEGLGVFQNSGADYLIAIGGGSPQDTCKAIGIISNNPEFADVRSLEGLSPTNKPSVPILAIPTTAGTAAEVTINYVITDEEKRRKFVCVDPHDIPQVAFIDADMMDGMPPALKAATGVDALTHAIEGYITRGAWALTDALHIKAIEIIAGALRGSVAGDKDAGEEMALGQYVAGMGFSNVGLGLVHGMAHPLGAFYNTPHGVANAILLPHVMRYNADFTGEKYRDIARVMGVKVEGMSLEEARNAAVEAVFALNRDVGIPPHLRDVGVRKEDIPALAQAALDDVCTGGNPREATLEDIVELYHTAW"
result = "soluble"


###

# assay.protocol: soluble on expression in E. coli; label from the status in PepcDB or PDB records
measurement.name: soluble on expression in E. coli

[[record]]
construct_sequence = "NCSKIHLSTKLLAVDFPAHFVKSISCQICEHILADPVETSCKHLFCRICILRCLKVMGSYCPSCRYPCFPTDLESPVKSFLNILNSLMVKCPAQDCNEEVSLEKYNHHVSSHKESK"
measurement_name = "soluble on expression in E. coli"
result = "soluble"

[[record]]
construct_sequence = "MTTRLEWAKASPDAYAAMLGLEKALAKAGLERPLIELVYLRTSQINGCAYCVNMHANDARKAGETEQRLQALCVWQETPYFTPRERAALAWTEQLARLSQGALPHGLLDELREHFDDKEIAELTLAVSAINAWNRFGVGMGMQPE"
measurement_name = "soluble on expression in E. coli"
result = "soluble"


###

# assay.protocol: soluble on expression in E. coli; label from the status in PepcDB or PDB records
measurement.name: soluble on expression in E. coli

Past entries and their recorded results:
[[record]]
construct_sequence = "MPFKLSPDCIVLAEPEKLHYPGDTVSGHIVLKFEKFSTCRAITLTVKGKAETGWDNVTKVGQWTYFNESGVLWKAEMSENRIEPGTHRIPFDYTVPENIPQSFEGPFGFIRFYIKVHMDRPHALDQCVKKEFLVTQKPTVVSKKHLGPEHIIRYCQKLNCNRGEIYFEAQLSNRIIFFDDPISLIIKIKNCSSRTIKKISLEAFQRIEYYSTTSACRKTHSVLIGKTGKSELKIRNDEIAISTFSMKFKEPATPSFASELIQVSYVLLVNLFTDGFWAAPLVFPVEFEVGKKSDVGTEDEETCDGLINFDED"
result = "not soluble"

[[record]]
construct_sequence = "MFDKHTHTLIAQRLDQAEKQREQIRAISLDYPEITIEDAYAVQREWVRLKIAESRTLKGHKIGLTSKAMQASSQISEPDYGALLDDMFFHDGSDIPTDRFIVPRIEVELAFVLAKPLRGPNCTLFDVYNATDYVIPALELIDARCHNIDPETQRPRKVFDTISDNAANAGVILGGRPIKPDELDLRWISALMYRNGVIEETGVAAGVLNHPANGVAWLANKLAPYDVQLETGQIILGGSFTLPVPARKGDTFHVDYGNMGSISCRFV"
result = "not soluble"

[[record]]
construct_sequence = "MHEYYYIYWYLSEFLYAWLMSTLSRADGSQMAEERIMEEQQKGRSSKKTKKKKKVRPLSREITMSQAYQNMCAGMFKTMVAFDMDGKVRKPKFELDSEQVRYEHRFAPFNSVMTPPPVHYLQFKEMSDLNKYSPPPQSPELYVAASKHFQQAKMILENIPNPDHEVNRILKVAKPNFVVMKLLAGGHKKESKVPPEFDFSAHKYFPVVKLVLEHHHHHH"
result = "not soluble"

[[record]]
construct_sequence = "MDKVKAARSLIQEALAQSQNPCFTCSFQAEDVVVLHLLLKERPEIPVLFLDTGYHFPEVYAYRDELQKRLGFRLVNLTPALSREEQERLYGKLYETDPGRCCALRKVEPLFAALEAHDTWFTGLRREQSPTRRNLEPQEEARLPSGHRLKKVNPLYDWTLKEVFAYLAVEDLPYLPLYDQGYLSIGCAPCTAKPLDPSDPRSGRWAGKGKLECGIHLHGKEG"
result = "soluble"

[[record]]
construct_sequence = "MGSLNGGSPEGVESQDGVDHFRAMIVEFMASKKMQLEFPPSLNSHDRLRVHQIAEEHGLRHDSSGEGKRRFITVSKRAGSHHHHHH"
result = "soluble"


Inquiry: Please list soluble on expression in E. coli recorded for the sequence `MAHHHHHHMTEPVRILVRRDEITVDSIMQYFVAVDEEKNKFETLCDLYDTLTIAHAVIFCNTRKKVEQLAKKMRKEKFSVSCMHGDMPQAERDEIMRNFREGKSRVLISTDLWSRGIDVEQVSLVLNYDLPFSREQYIHRIGRTGRMGRKGLAISFVKHDELRLLRDVEQFYATQIEELPANIADQF`
Reply text: not soluble

Inquiry: Respond only with soluble on expression in E. coli recorded for `QVQLVQSGGGLVKPGGSLRLSCAASGFTFSSYAMSWVRQAPGKGLEWVSAISGSGGSTYYADSVKGRFTISRDNSKNTLYLQMSSLRAEDTAVYYCARPYLTYPQRRGPQNVSPFDNWGQGTMVTVSSASTKGPSVFPLAPSSKSTSGGTAALGCLVKDYFPEPVTVSWNSGALTSGVHTFPAVLQSSGLYSLSSVVTVPSSSLGTQTYICNVNHKPSNTKVDKKVEPKSCAAAHHHHHHGAAEQKLISEEDLNGAA`
Reply text: soluble
